test system: MEM-, imipenem/relebactam-, and ceftolozane/tazobactam-nonsusceptible P. aeruginosa; assay: MIC, broth microdilution; format: cell-based, Pseudomonas aeruginosa; settings: Pseudomonas aeruginosa, Ceftolozane/tazobactam-nonsusceptible Pseudomonas aeruginosa (45); fixed concentration (μg/mL) in label; read-out: MIC50
outcome-measure: MIC50 (µg/mL)
The figure you give is taken to be in µg/mL; do not add the unit.

[in] If you can, please state the reported MIC50 value of CC(C)(O/N=C(\C(=O)N[C@@H]1C(=O)N2C(C(=O)[O-])=C(C[N+]3(CCNC(=O)c4ccc(O)c(O)c4Cl)CCCC3)CS[C@H]12)c1csc(N)n1)C(=O)O [FDC, cefiderocol] .
[out] 0.5

[in] # iterate: C[C@@H](O)[C@H]1C(=O)N2C(C(=O)O)=C(S[C@@H]3CN[C@H](C(=O)N(C)C)C3)[C@H](C)[C@H]12 [MEM, meropenem]
[out] 64
